// read-out pKi, gathered for the protein given by its sequence from published studies
Target chain: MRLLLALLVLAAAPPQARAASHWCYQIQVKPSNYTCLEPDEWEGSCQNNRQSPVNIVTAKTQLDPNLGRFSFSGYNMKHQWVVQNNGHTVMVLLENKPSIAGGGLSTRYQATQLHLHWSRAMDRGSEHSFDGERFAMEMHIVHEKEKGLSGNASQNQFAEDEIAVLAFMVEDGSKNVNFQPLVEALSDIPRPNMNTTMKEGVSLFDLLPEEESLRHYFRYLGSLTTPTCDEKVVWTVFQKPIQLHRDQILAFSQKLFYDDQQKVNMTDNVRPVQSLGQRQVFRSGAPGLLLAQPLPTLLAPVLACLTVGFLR
pKi: −log10 of the molar value.

compound	relation qualifier	pKi
Cc1cc(C)[n+](CC(=O)OCCc2ccc(S(N)(=O)=O)cc2)c(C)c1	=	6.89
NS(=O)(=O)c1ccccc1NS(=O)(=O)C(F)(F)C(F)(F)C(F)(F)C(F)(F)F	=	6.05
CNCC(=O)Nc1nccc(Nc2ccc(S(N)(=O)=O)cc2)n1	=	7.22
NS(=O)(=O)c1cccc(NCc2cc(=O)oc3cc(Cl)ccc23)c1	=	6.55
Nc1ccc(S(=O)(=O)Nc2nnc(S(N)(=O)=O)s2)cc1Cl	=	8.62
NS(=O)(=O)c1ccc(NC(=O)CN(CCOCCOCCN(CC(=O)O)CC(=O)O)CC(=O)O)c(F)c1	=	7.51
NS(=O)(=O)c1cc(S(N)(=O)=O)c(NC(=O)CN(CCN(CC(=O)O)c2ccccc2O)c2ccccc2O)cc1Cl	=	6.91
NS(=O)(=O)c1ccc(NC(=O)CN(CCN(CC(=O)O)CC(=O)Nc2ccc(S(N)(=O)=O)cc2)CC(=O)O)cc1	=	6.68
NS(=O)(=O)c1cc(S(N)(=O)=O)c(NC(=O)CN(CCOCCOCCN(CC(=O)O)CC(=O)O)CC(=O)O)cc1Cl	=	7.19
CN(CC(=O)Nc1ccc(S(=O)(=O)Nc2ccc(S(N)(=O)=O)cc2)cc1)C(=N)N	=	7.29
NS(=O)(=O)c1ccccc1NC(=O)CN(CCN(CCN(CC(=O)O)CC(=O)O)CC(=O)O)CC(=O)O	=	6.26
NCCCC(=O)Nc1ccc(S(N)(=O)=O)cc1Br	=	7.22
NC(=O)Nc1ccc(S(=O)(=O)Nc2cccc(S(N)(=O)=O)c2)cc1	=	7.60
NS(=O)(=O)c1nnc(NS(=O)(=O)c2ccc(NC(=O)c3c(F)c(F)c(F)c(F)c3F)cc2)s1	=	7.49
CN(CC(=O)Nc1ccc(S(N)(=O)=O)cc1)C(=N)N	=	6.85
Cc1cc(C(C)C)[n+](Cc2ccc(S(N)(=O)=O)cc2)c(C(C)C)c1	=	6.84
NS(=O)(=O)c1ccc(NNC(=O)CN(CCN(CC(=O)O)CC(=O)O)CC(=O)O)cc1	=	6.12
NCC(=O)NCC(=O)NS(=O)(=O)c1nc2ccc(O)cc2s1	=	7.21
NS(=O)(=O)c1ccc(COS(=O)(=O)C(F)(F)C(F)(F)C(F)(F)C(F)(F)C(F)(F)C(F)(F)C(F)(F)C(F)(F)F)cc1	=	4.96
Cc1cc(-c2ccccc2)cc(C)[n+]1CC(=O)OCc1ccc(S(N)(=O)=O)cc1	=	7.12
CCCC(CCC)C(=O)Nc1c(S(N)(=O)=O)cc(S(N)(=O)=O)c(Cl)c1Cl	=	6.81
Cc1cc(C)[n+](CC(=O)Nc2ccc(S(N)(=O)=O)cc2I)c(C)c1	=	7.11
NS(=O)(=O)c1nc2ccc(OCCOC(=O)CN(CCN(CCN(CC(=O)O)CC(=O)O)CC(=O)O)CC(=O)O)cc2s1	=	8.30
C[C@H](CCC(=O)Nc1c(S(N)(=O)=O)cc(S(N)(=O)=O)c(Cl)c1Cl)[C@H]1CC[C@H]2[C@@H]3[C@@H](O)C[C@@H]4C[C@H](O)CC[C@]4(C)[C@H]3CC[C@]12C	=	7.54
COc1ccc(S(=O)(=O)N(Cc2ccccc2Cl)C(C)C(=O)NO)cc1 (stereo unspecified)	<	6.70
NS(=O)(=O)c1nnc(NS(=O)(=O)C(F)(F)F)s1	=	6.22
CNCC(=O)NCc1ccc(S(N)(=O)=O)cc1	=	7.13
NS(=O)(=O)c1ccc(CN2C(=O)c3cccnc3C2=O)cc1	=	7.10
NS(=O)(=O)c1ccc(NS(=O)(=O)C(F)(F)C(F)(F)C(F)(F)C(F)(F)C(F)(F)C(F)(F)C(F)(F)C(F)(F)F)c(Cl)c1	=	4.99
CCN(C)C(=S)SNCCc1ccc(S(N)(=O)=O)cc1	=	7.52
Nc1c(F)cc(S(=O)(=O)Nc2nnc(S(N)(=O)=O)s2)cc1I	=	8.68
Cn1nc(S(N)(=O)=O)s/c1=N/SC(=S)N1CCOCC1	=	7.59
NS(=O)(=O)c1ccc(NS(=O)(=O)C(F)(F)C(F)(F)C(F)(F)C(F)(F)C(F)(F)C(F)(F)C(F)(F)C(F)(F)F)c(Br)c1	=	4.90
CC(C)c1cc(-c2ccccc2)cc(C(C)C)[n+]1CC(=O)Nc1nccc(Nc2ccc(S(N)(=O)=O)cc2)n1	=	7.21
NS(=O)(=O)c1ccc(Nc2ccnc(NS(=O)(=O)c3c(F)c(F)c(F)c(F)c3F)n2)cc1	=	7.62
C[C@H](CCC(=O)Nc1cccc(S(N)(=O)=O)c1)[C@H]1CC[C@H]2[C@@H]3[C@H](O)C[C@@H]4C[C@H](O)CC[C@]4(C)[C@H]3C[C@H](O)[C@]12C	=	5.87
